- assayed target: EGFR Fab binding to the EGFR antigen
- measurement notes: ELISA competitive inhibition of EGFR Fab binding to EGFR antigen
- protocol conditions: read-out: IC50 for peptide inhibition of αEGFR Fab binding to EGFR antigen; Table 18
experimental endpoint: IC50

// solved cases for IC50 follow
molecule	IC50
CSCC[C@@H]1NC(=O)[C@H](Cc2c[nH]cn2)NC(=O)[C@H](CO)NC(=O)[C@@H](NC(=O)[C@@H](N)CCC(=O)O)CSSC[C@@H](C(=O)N[C@@H](CO)C(=O)O)NC(=O)[C@H](CC(C)C)NC(=O)[C@@H]2CCCN2C(=O)[C@H](Cc2c[nH]c3ccccc23)NC(=O)[C@H](CCCNC(=N)N)NC(=O)[C@H]([C@@H](C)O)NC(=O)CNC(=O)[C@H](CCC(=O)O)NC1=O [Peptide-16]	> 300 nM
CSCC[C@@H]1NC(=O)[C@H](C(C)C)NC(=O)[C@H]([C@@H](C)O)NC(=O)[C@@H](NC(=O)[C@H](C)N)CSSC[C@@H](C(=O)N[C@H](C(=O)O)C(C)C)NC(=O)[C@H](CCCNC(=N)N)NC(=O)[C@H](C(C)C)NC(=O)[C@H](CCC(=O)O)NC(=O)[C@H](CCC(N)=O)NC(=O)[C@H](CCCNC(=N)N)NC(=O)[C@H](C)NC(=O)CNC1=O [Peptide-13]	> 300 nM

Now for the molecule whose IC50 we want.
IC50 reading for CC(C)C[C@@H]1NC(=O)[C@H](CCC(N)=O)NC(=O)CNC(=O)[C@H](CCCNC(=N)N)NC(=O)[C@H](CCC(N)=O)NC(=O)[C@H](Cc2c[nH]c3ccccc23)NC(=O)[C@H](C(C)C)NC(=O)[C@H](CO)NC(=O)[C@H](CC(N)=O)NC(=O)[C@@H](NC(=O)[C@@H](N)Cc2ccc(O)cc2)CSSC[C@@H](C(=O)O)NC(=O)[C@H](Cc2c[nH]c3ccccc23)NC(=O)[C@H](Cc2ccc(O)cc2)NC1=O [Peptide-15] : > 300 nM
